target: HDAC2 (Homo sapiens, UniProt Q92769); assay: Cellular HDAC2 inhibition (HDAC-Glo 2 Kit) in BM cells; format: cell-based; set-up: endogenous in cells; host or cells: primary human bone marrow (BM) cells expanded in CS1 media; conditions: CS1 expansion media 6 days, then 48 hours with compound, n = 6
Sequence (Q92769 whole entry): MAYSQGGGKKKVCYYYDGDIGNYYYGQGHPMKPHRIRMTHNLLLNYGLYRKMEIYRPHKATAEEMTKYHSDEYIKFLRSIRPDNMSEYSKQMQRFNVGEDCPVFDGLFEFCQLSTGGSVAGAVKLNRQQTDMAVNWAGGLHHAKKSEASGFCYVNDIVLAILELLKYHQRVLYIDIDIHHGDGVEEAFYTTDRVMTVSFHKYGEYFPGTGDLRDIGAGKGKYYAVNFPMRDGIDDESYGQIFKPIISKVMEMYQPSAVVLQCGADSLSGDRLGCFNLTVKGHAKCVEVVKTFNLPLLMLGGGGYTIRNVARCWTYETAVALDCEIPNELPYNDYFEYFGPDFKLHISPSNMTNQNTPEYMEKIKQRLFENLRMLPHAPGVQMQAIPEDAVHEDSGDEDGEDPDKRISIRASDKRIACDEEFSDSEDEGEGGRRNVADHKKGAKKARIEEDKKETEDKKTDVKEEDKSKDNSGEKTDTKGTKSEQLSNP
value type: IC50 (nM)

* Nc1ccc(-c2cccs2)cc1NC(=O)c1ccc2nc(N3CCNCC3)ccc2c1 | 304

====

molecular target: UniProt Q92769; test: In vitro biochemical HDAC enzyme assay; set-up: purchased BPS Biosciences; conditions: 24 hours pre-incubation; mean, n = 4
pIC50: −log10 of the molar value.
value type: pIC50

- Nc1ccc(-c2cccs2)cc1NC(=O)c1ccc2nc(N3CCNCC3)ccc2c1 [ACY-957]: 7.74
